- Test system: cotton aphid (Aphis gossypii)
- assayMethodText: Comparative Experiment 3 (method of Test Example 3: cotton aphid, irrigation, 200 ppm)
- Type: in vivo
- conditionDetails: cotton aphid on cucumber seedling, irrigation into plant foot, 200 ppm (method of Test Example 3)
quantityMeasured: control value, Comparative Experiment 3

CCS(=O)(=O)c1cccnc1-c1ccc([S+]([O-])C(F)(F)F)cn1 (stereo not drawn) [Compound S-8]	A (A represents 100%)
CCS(=O)(=O)c1cccnc1-c1ccc(SC(F)(F)F)cn1 [Compound S-7]	A (A represents 100%)
